pIC50: −log10 of the molar value.
Below: molecules with pIC50 recorded for UniProt P01116 in separate published works.
recorded_endpoint: pIC50

Check out these entries, answers already filled in.
# molecule, pIC50
data = [
    ("N#Cc1cccnc1N1CCN(c2nc(OCC34CCCN3CCC4)nc3c(F)c(-c4cccc5cccc(F)c45)ncc23)CC1", 5.30),
    ("COCC12COC(COc3nc4c5c(c(Cl)c(-c6nc(N)cc(C)c6C(F)(F)F)c(F)c5n3)OCCN4[C@H](C)c3cccnc3N)(C1)C2", 9.11),
    ("C[C@@]1(O)COCCN(c2nc(OC[C@@]34CCCN3C[C@H](F)C4)nc3sc4c(-c5c(-c6cnco6)c(Cl)cc6[nH]ncc56)nccc4c23)C1", 7.22),
    ("C=C1CN2CCC2(COc2nc3c4c(c(Cl)c(-c5nc(N)cc(C)c5C(F)(F)F)c(F)c4n2)OCCN3[C@H](C)c2cccnc2N)C1 (stereo partly shown)", 9.72),
    ("O=C1CC2(CCCN(c3nc(OCC45CCCN4CCC5)nc4c(F)c(-c5cccc6cccc(Cl)c56)ncc34)C2)N1 (stereo not shown)", 6.95),
]

A = OCC1CCCCN(c2nc(OCC34CCCN3CCC4)nc3c(F)c(-c4cccc5cccc(F)c45)ncc23)C1 (stereo not shown)
B = CN(C)C(=O)c1cc2n(n1)CCCN(c1nc(OCC34CCCN3CCC4)nc3c(F)c(-c4cccc5cccc(F)c45)ncc13)C2
C = Fc1c(-c2cccc3cccc(F)c23)ncc2c(Nc3ccc4[nH]ncc4c3)nc(OCC34CCCN3CCC4)nc12
QUERY: Rank the items in ascending order with respect to pIC50. List each label, following the requested order.
RESULT: C, A, B

1 = CCC1CC(F)(F)c2cc3[nH]ncc3c(-c3nccc4c3sc3nc(OC[C@@]56CCCN5C[C@H](F)C6)nc(N5CCOC[C@@](C)(O)C5)c34)c21 (stereo partly shown)
2 = C#Cc1c(F)ccc2cccc(-c3ncc4c(N5CCC[C@@](C)(O)C5)nc(OC[C@@]56CCCN5C[C@H](F)C6)nc4c3F)c12
QUERY: Select one. Lower pIC50: 1 or 2 Refer to your chosen item by its label in the answer.
RESULT: 2
(2: 7.49, 1: 8.11)

A = C#Cc1c(F)ccc2cccc(-c3ncc4c(N5CCC[C@@](C)(O)C5)nc(OCC56CCCN5CCC6)nc4c3F)c12
B = Cc1cc(N)nc(-c2cc3ncnc4c3c(c2Cl)OC[C@H](CC#N)N4Cc2cccnc2N)c1C(F)(F)F
QUERY: Select one. Lower pIC50: A or B Refer to your chosen item by its label in the answer.
RESULT: B
